assay: Staphylococcus aureus RN4220 growth blockers – two temperatures, LtaS inhibitor project, primary screen (AID 720641); conditions: S. aureus RN4220 growth, OD600, 20 h, 42 °C; stronger effect = lower value
Among all 170,000 compounds or so, about 900 (0.53%) were called active. The sample as a whole holds a higher share of actives than the screen did.
The entries below come with measured relative growth values attached.
Please give a number only; it is taken to be in %.

Entry COc1ccc(C(C(=O)NC2CCCC2)N(C(=O)c2ccn[nH]2)c2ccc(F)cc2)cc1OC (stereo unspecified) : reported relative growth = ?
113

Entry CCc1ccc(CNC(=O)c2ccc(CS(=O)c3ccc(Br)cc3)o2)cc1 (stereo unspecified) : reported relative growth = ?
19.5

###

assay: Staphylococcus aureus RN4220 growth blockers – two temperatures, LtaS inhibitor project, primary screen (AID 720641); conditions: S. aureus RN4220 growth, OD600, 20 h, 42 °C; measured here: growth at 30 °C; stronger effect = lower value
About 900 (0.53%) of roughly 170,000 compounds were called active. The full list was thinned out, with actives kept by preference.
The entries below come with measured relative growth values attached.
Please give a number only; it is taken to be in %.

Recorded results for 5 compounds are shown here.
{"columns": ["compound", "relative growth (%)"],
 "data": [
  ["CCc1nnc(NC(=O)C2CCCN2S(=O)(=O)c2ccccc2)s1 (stereo not drawn)", 89.3],
  ["O=S(=O)(NC1CCCC1)c1ccc(S(=O)(=O)N2CCN(c3ncccn3)CC2)cc1", 79.4],
  ["NC(=O)N/N=C1/C=C(c2ccccc2)C(O)(c2ccccc2)C1 (stereo not drawn)", 91.3],
  ["COc1ccc(C2=NC(C)(C)N(CC(=O)Nc3ccccc3)C2=O)cc1", 93.8],
  ["Cc1onc(-c2ccccc2)c1C(=O)Nc1cccc(C(F)(F)F)c1", 87.3]
]}

Entry COC(=O)c1ccc2c(c1)NC(=O)C(C)N2 (stereo not drawn) : reported relative growth = ?
65.5

Entry `Cc1ccc(-c2nc3ccccn3c2Nc2c(C)cccc2C)o1` : reported relative growth = ?
1.66

Entry `CC(=O)OCC(=O)CC12CC3CC(CC(C3)C1)C2` : reported relative growth = ?
93.7

###

experiment: Staphylococcus aureus RN4220 growth blockers – two temperatures, LtaS inhibitor project, primary screen (AID 720641); settings: S. aureus RN4220 growth, OD600, 20 h, 42 °C; measured here: growth at 30 °C; stronger effect = lower value
Out of some 170,000 compounds screened, about 900 (0.53%) were called active. The sample as a whole holds a higher share of actives than the screen did.
recordedEndpoint: relative growth (%)
Please give a number only; it is taken to be in %.

Recorded results for 5 molecules are shown here.
{"columns": ["molecule", "relative growth / %"],
 "data": [
  ["CC(C)Oc1ccc(NC(=O)c2cc3ccccc3o2)cc1", 89.7],
  ["C=CCn1c(SCC(=O)Nc2sc(C(=O)OC)c(C)c2C(=O)OC)nc2ccccc21", 90.4],
  ["CC(C)(C)C(=O)OCC(=O)Nc1ccccc1", 92.1],
  ["CC1CCN(C(=O)COc2ccc(-c3nn(C)c(=O)c4ccccc34)cc2)CC1", 89.7],
  ["COC(=O)C(N)c1ccccc1 (stereo unspecified)", 90.3]
]}

Now look at this one.
Entry `COCCNc1ncnc2c1sc1nc(N3CCOCC3)c3c(c12)CCC3` : reported relative growth = ?
88.7
